Substrate: C=C(C)CCO[P@@](=O)(O)OP(=O)(O)O
Assay: purified protein
Details: co-substrate GPP 60 µM, IPP 0.5-50 µM; FPP formation
assay_metric: Km
Respond with a number, then the unit of measure.

Incoming: Entry RcG/FPPS1 (Rosa chinensis; V123I) (protein) MADLKSKFLNVYSVLKSELLEDPAFEFTDASRQWVERMLDYNVPGGKLNRGLSVIDSYQLLQQGRELTEDEIFQASALGWCIEWLQAFFLVLDDMMDGSHTRRGQPCWFRLPKVGLIAANDGILLRNHIPRILKKHFRQKPYYVDLVDLFNEVEFQTASGQLIDLITTIDGEKDLSKYSLSIHRRIVQYKTAYYSFYLSVACALLMSGEELDKHIDVKNLLVDMGIYFQVQDDYLDCFGDPETIGKIGTDIEDFKCSWLVVKALELSNEEQKKILHENYGNPDPAKVAKVKALYKELDLQGVFAEYERQSYEKLISSIEAHPSKAVQEVLKSFLGKIYKRKK has what Km?
Outgoing: 14.74 ± 1.94 µM

Just for reference, paper PMC10175749 is where these values come from.
